Measured values drawn from paper PMC5540273 for this set.

Form field: %Inh (one value per entry).
system: CSNK1A1; conditions: concentration: 1 μM, replicates: in singlicate; n = 1;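 also: KINOMEscan kinase panel screen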
Recorded endpoint: %Inh (%)

[
  {
    "Compound": "COc1cc2c(cc1OCCN1CCNCC1)ncc1c3ccc(C#N)cc3[nH]c21",
    "Reported measurement": 40
  },
  {
    "Compound": "CC(C)(C)c1ccc2nccc(Nc3cccc(O)c3)c2c1",
    "Reported measurement": 26
  },
  {
    "Compound": "COc1cccc(C(=O)Nc2cccc(Oc3ccc4nc(NC(=O)C5CC5)cn4n3)c2)c1",
    "Reported measurement": 29
  },
  {
    "Compound": "Fc1ccc(-c2ncn(C3CCNCC3)c2-c2ccnc(Oc3ccc(-c4ccccc4)cc3)n2)cc1",
    "Reported measurement": 93.9
  },
  {
    "Compound": "Cl.Cl.NCC(C(=O)Nc1cc(Br)c(-c2ccnc3[nH]ccc23)s1)c1ccccc1 (centres unmarked)",
    "Reported measurement": 0
  }
]
